Data origin, for the record: patent US20230174641A1

- SYSTEM TESTED: T1, human ACTH 1-39 (human)
- T1 peptide: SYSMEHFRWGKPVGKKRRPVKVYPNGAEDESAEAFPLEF
- PROTOCOL: cell-based or functional assay
The reader will find reported MC3R IC50 values listed item by item below.

BINDER	MC3R IC50, nM
Ab1 (antibody, human IgG1, kappa, N297A, V domains shown, rabbit/human chimeric antibody, made in HEK-293) VH: QSVKESGGRLVTPGTPLTLTCTVSGFSLSNYDMIWVRQAPGKGLESIGMIYDDGDTYYASWAKGRFTISKTSTTVDLKIISPTTEDTATYFCVKGVSNHWGPGTLVTVSS VL: DVVMTQTPASVEAAVGGTVTIKCQASQSISSYLAWYQQKPGQPPKLLIYSASTLASGVPSRFKGRGSGTEFTLTISDLECADAATYYCQSYDGSSGSSYGVGFGGGTEVVVKR	101
Ab4 (antibody, human IgG1, kappa, N297A, V domains shown, rabbit/human chimeric antibody, made in HEK-293) VH: QSVEESGGRLVTPGTPLTLTYTVSGFSLSKHDMIWVRQAPGKGLESIGIIYDDGDTYYANWAKGRFTISKTSTTVDLKIISPTTEDTATYFCVKGVSNIWGPGTLVTVSS VL: DVVMTQTPASVEAAVGGTVTIKCRASQSISVYLAWYQQKAGQPPKLLIYQASKLASGVPSRFKGSGSGTEFTLTISDLECADAATYYCQSYDGSSSSSYGVGFGGGTEVVVKR	113
Ab7 (antibody, human IgG1, kappa, N297A, V domains shown, rabbit/human chimeric antibody, made in HEK-293) VH: QSVEESGGRLVTPGTPLTLTCTVSGFSLSSYAMSWVRQAPGEGLEWIGIISDSGSTYYASWAKGRFTISKTSTTVDLRITSPTTEDTATYFCAREPEYGYDDYGDWVSDLWGQGTLVTVSS VL: DIVMTQTPASVEAAVGGTVTIKCQASQSISDYLSWYQQKPGQPPKLLIYRASTLASGVPSRFKGSGSGTQFTLTISDLECADAATYYCQSYYYSSSITYRNAFGGGTEVVVKR	64.2
